mass density: recorded values
STUDY CONDITIONS: 293.15 K; 101.33 kPa; Liquid; Vibrating tube method

{"MOLECULE": "ClCCCl [1,2-dichloroethane]", "mass density (kg/m3)": 1252.74}
{"MOLECULE": "CCCCCCCCCCO [decan-1-ol]", "mass density (kg/m3)": 829.991}
{"MOLECULE": "BrCCBr [1,2-dibromoethane]", "mass density (kg/m3)": 2179.6}
{"MOLECULE": "ClC(Cl)=C(Cl)Cl [tetrachloroethene]", "mass density (kg/m3)": 1622.39}

---

speed of sound: recorded values
STUDY CONDITIONS: 293.15 K; 101.33 kPa; Liquid; Sing-around technique in a fixed-path interferometer
RESULT TYPE: speed of sound (m/s)

{"SMILES INPUT": "CCCCCCCCCCO", "DISPLAY UNIT": "m/s", "RESULT": 1396.4}
{"SMILES INPUT": "ClCCCl", "DISPLAY UNIT": "m/s", "RESULT": 1212.8}
{"SMILES INPUT": "BrCCBr", "DISPLAY UNIT": "m/s", "RESULT": 1007}
{"SMILES INPUT": "ClC(Cl)=C(Cl)Cl", "DISPLAY UNIT": "m/s", "RESULT": 1053.8}

Cited source: the NIST ThermoML archive (doi:10.1016/j.jct.2009.07.020)
